Tested on: HOP-92 NSCLC
test method notes: NCI-60 one-dose screen, 48 h
run conditions: 10 µM unless noted
The panel holds about 83,000 compounds, 20% with a hit somewhere; the sample as a whole holds those more often. Calls of active or inactive are those of the source. Rule for the calls: active = growth percent below 10; inactive = the rest.
In this exercise, the only acceptable responses are active, inactive

(Q) Record request — test call for `FC(F)(F)Oc1ccc2nc3nc4ccc[nH]c4cc3c2c1`
(A) inactive

(Q) Record request — test call for `O=C(C(=O)c1ccc2c(c1)OCO2)c1ccc2c(c1)OCO2`
(A) inactive

(Q) Record request — test call for `COc1ccc(/C=C/c2nc3ccccc3nc2/C=C/c2ccc(OC)cc2)cc1`
(A) inactive

(Q) Record request — test call for `COc1cc(C(=O)/C=C/c2cccnc2Nc2ccc(Cl)cc2)cc(OC)c1OC`
(A) active

====

System: RXF 393 renal
test method notes: NCI-60 one-dose screen, 48 h (100 = growth as untreated, 0 = no growth, -100 = all killed)
run conditions: 10 µM unless noted
This is part of a sample that, as a whole, favours compounds with a hit. Of some 83,000 tested, about 20% had one in any assay.
Item-by-item account of growth
Give the number; % is assumed, so skip it.

Past entries and their recorded results:
COc1ccc(-c2nc3cc(C(=O)Nc4cc(OC)c(OC)c(OC)c4)ccc3n2C2CCCCC2)cc1
103
O=C(COc1cccc(/C=C2\CSc3ccccc3C2=O)c1)Nc1nccs1
71
CCOC(=O)c1sc2nc(-c3cccc(OC)c3)nc(N3CCOCC3)c2c1C
95.6
CSc1ccc(-c2ccccc(=O)c2O)cc1
39.3

// moving on: another record for growth
Measured growth of `Nc1ccc(S(=O)(=O)O)c2ccc(N=Nc3ccc(N=Nc4ccc(S(=O)(=O)O)cc4)c4ccccc34)c(O)c12` : 109

====

Tested on: SN12C renal
test method notes: NCI-60 one-dose screen, 48 h
run conditions: 10 µM unless noted
The panel holds about 83,000 compounds, 20% with a hit somewhere; the sample as a whole holds those more often. Calls of active or inactive are those of the source. Rule for the calls: active = growth percent below 10; inactive = the rest.
In this exercise, the only acceptable responses are active, inactive

COc1cc(-c2nn(-c3ccc(C)cc3)cc2C(=O)O)ccc1O
inactive
CCCCn1c(-c2ccc(C(=O)O/N=C(\N)c3ccc4ccccc4c3)cc2)nc(-c2ccccc2)c1-c1ccccc1
inactive
NC(CSC(c1ccccc1)(c1ccccc1)c1ccc(Cl)cc1)C(=O)O (stereo not given)
inactive

(Q) Record request — test call for `C#CC(F)(F)[C@]1(O)CC[C@H]2[C@@H]3CCC4=CC(=O)CCC4=C3[C@@H](c3ccc(C4CC4)cc3)C[C@@]21C`
(A) inactive

(Q) Record request — test call for `Cc1oc(-c2ccc(Cl)cc2Cl)cc1C(=O)Nc1nccs1`
(A) inactive

(Q) Record request — test call for `N#Cc1nnn(-c2ccc(S(N)(=O)=O)cc2)c1NCC(=O)c1ccccc1`
(A) inactive

(Q) Record request — test call for `COc1ccc(/C=C/C(=O)c2ccc(O)c(CN3CCN(c4cc5c(cc4F)c(=O)c(C(=O)O)cn5C4CC4)CC3)c2)cc1`
(A) active

(Q) Record request — test call for `Cc1nc2ccccc2n1C(=O)C[C@@H]1NC(=S)NC1=O`
(A) inactive

(Q) Record request — test call for COc1cccc(C2=NN3C(C2)c2cc(Br)cc(OC)c2OC32CCN(Cc3ccccc3)CC2)c1 (stereo not given)
(A) inactive

(Q) Record request — test call for `O=c1c(F)cn(Cc2ccccc2CCl)c(=O)n1Cc1ccccc1CCl`
(A) active

(Q) Record request — test call for `O=[N+]([O-])c1cnc(N2CCN(CC3CC3)CC2)nc1N1CCN(CC2CC2)CC1`
(A) inactive

(Q) Record request — test call for Nc1n[nH]c2ccc([C@@H]3Nc4ccc5[nH]ncc5c4[C@H]4C5C=CC(C5)[C@@H]34)cc12 (stereo not given in full)
(A) inactive

(Q) Record request — test call for `N#C/C(=C\c1ccc(-c2cc(C(F)(F)F)ccc2Cl)o1)c1nc(-c2ccco2)cs1`
(A) inactive

(Q) Record request — test call for `COC(=O)[C@]12CCC(C)(C)C[C@H]1[C@H]1C(=O)C[C@@H]3[C@@]4(C)c5c([nH]c6ccccc6c5=O)C(C)(C)[C@@H]4CC[C@@]3(C)[C@]1(C)CC2`
(A) inactive

(Q) Record request — test call for `C#Cc1cccc(NC(=O)c2ccccc2NC(=O)CCl)c1`
(A) inactive

(Q) Record request — test call for `CSc1ccc(-c2n[nH]nc2-c2cc3ccccc3s2)cc1`
(A) inactive

(Q) Record request — test call for `O=C1/C(=C/C(Cl)=C/c2ccccc2)SC(=S)N1CCc1ccc(O)cc1`
(A) active

(Q) Record request — test call for `COc1cc(-c2nn(C)nc2-c2cc3ccccc3s2)cc(OC)c1OC`
(A) inactive

(Q) Record request — test call for `O=C(/C=C/c1cccc([N+](=O)[O-])c1)c1ccc(O)c(CN2CCN(c3cc4c(cc3F)c(=O)c(C(=O)O)cn4C3CC3)CC2)c1`
(A) inactive

(Q) Record request — test call for `COc1cc(-c2nc3ccccc3[nH]2)ccc1OCc1nnc(-c2ccc(CC(C)C)cc2)o1`
(A) inactive

(Q) Record request — test call for `COCCNc1ccc2c3c(cccc13)C(=O)N(CCN(C)C)C2=O`
(A) inactive
